measured_target: UniProt P11712
Sequence (P11712 whole entry): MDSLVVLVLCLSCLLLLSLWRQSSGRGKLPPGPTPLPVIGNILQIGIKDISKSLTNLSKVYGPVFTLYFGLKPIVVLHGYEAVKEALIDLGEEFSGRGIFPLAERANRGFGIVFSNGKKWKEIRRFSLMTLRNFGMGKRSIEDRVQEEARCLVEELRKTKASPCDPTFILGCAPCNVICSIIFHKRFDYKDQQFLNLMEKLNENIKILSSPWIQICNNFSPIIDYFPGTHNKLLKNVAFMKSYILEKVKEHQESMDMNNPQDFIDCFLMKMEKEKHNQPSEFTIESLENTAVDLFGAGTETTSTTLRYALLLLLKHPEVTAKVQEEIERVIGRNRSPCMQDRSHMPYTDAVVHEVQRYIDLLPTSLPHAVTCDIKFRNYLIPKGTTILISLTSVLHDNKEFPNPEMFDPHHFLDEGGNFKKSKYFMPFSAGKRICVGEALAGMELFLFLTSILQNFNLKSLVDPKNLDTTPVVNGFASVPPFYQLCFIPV
method_description: biochemical
Catalogue of AC50 readings, one per entry.
Give the value, in units of µM, as a plain number.

Here is how some compounds turned out for AC50.
CCCCOC(=O)COc1ccc(Cl)cc1Cl	35.6
O=C1c2ccccc2-c2ccccc21	67.7
NS(=O)(=O)c1ccc(NCc2ccccc2)cc1 [Benzylsulfamide]	18.6

Q: Field request: AC50 | item: "Cc1cc2c(cc1S(N)(=O)=O)S(=O)(=O)CCC2"
Ans: 8.15

Q: Field request: AC50 | item: CC(=O)c1ccc(O)cc1 [4-Hydroxyacetophenone]
Ans: 36.2

Q: Field request: AC50 | item: CCOc1ccccc1C(N)=O [2-Ethoxybenzamide]
Ans: 31
